Assay: SK-BR-3 cell growth inhibitors, pilot screen, 24 h, human (AID 572);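 note: compound exposure lasted between 18 and 24 h rather than exactly 24 h; 100% = carrier-treated control wells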
Conditions: SK-BR-3 viability, CellTiter-Glo luminescence, at 10 µM, active compounds read low
ENDPOINT_NAME: viability (%)
Write it as a number; the unit % goes unstated.

Please review the following examples before continuing.
1. COC(=O)c1cc(=O)nc2sc(-c3cccs3)nn12; 115
2. CCN1CCN(c2cc3c(cc2F)c(=O)c(C(=O)O)cn3C2CC2)CC1; 103
3. COc1cc(C2C(C(=O)c3ccc(C)o3)=C(O)C(=O)N2c2cc(C)on2)cc(Br)c1O (stereo not given); 102

INPUT: Consider the molecule COc1ccc(C2=NOC(C(=O)NC3CCCCC3)C2)cc1OC (stereo not given) . State its measured viability.
OUTPUT: 97.5

INPUT: Consider the molecule `CCOC(=O)N1CCN(C(=O)Cn2ncn3nc(-c4cccs4)cc3c2=O)CC1` . State its measured viability.
OUTPUT: 97

INPUT: Consider the molecule `c1ccc(-c2nnc(-c3ccco3)n2-c2ccccc2)cc1` . State its measured viability.
OUTPUT: 81.5

INPUT: Consider the molecule `C1CCC2=NCCCN2CC1` . State its measured viability.
OUTPUT: 122

INPUT: Consider the molecule CCCC1(C(=O)OCC)NC(c2ccc(N(C)C)cc2)C2C(=O)N(c3ccc(F)cc3)C(=O)C21 (stereo not given) . State its measured viability.
OUTPUT: 90

INPUT: Consider the molecule `CCOC(=O)c1cnn(-c2cc(C)c3cc(C)cc(C)c3n2)c1N` . State its measured viability.
OUTPUT: 88.5

INPUT: Consider the molecule `COc1ccc(Cn2c(CCCO)nc3ccccc32)cc1OC` . State its measured viability.
OUTPUT: 98.5

INPUT: Consider the molecule `CCN(CC)S(=O)(=O)c1ccc(N2CCCC2)c(C(=O)OCC(=O)/C(C#N)=C(\C)N)c1` . State its measured viability.
OUTPUT: 91

INPUT: Consider the molecule `Cc1cc(Nc2ccccc2)n(CCC#N)n1` . State its measured viability.
OUTPUT: 83.5

INPUT: Consider the molecule `CCS(=O)(=O)N1CCC(C(=O)NC2CCCCCCC2)CC1` . State its measured viability.
OUTPUT: 98

INPUT: Consider the molecule `O=C(CSc1nnc(C2CC2)n1Cc1ccccc1)c1ccc(S(=O)(=O)N2CCOCC2)cc1` . State its measured viability.
OUTPUT: 120

INPUT: Consider the molecule `Cc1ccc(NC(=O)CNc2cccc(C)c2C)c(C)c1` . State its measured viability.
OUTPUT: 106

====

Experiment: inhibitors of the yeast RAM network, pilot screen, dse1pr::URA3 reporter, 5-FOA selection (AID 869);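 note: 0% = DMSO wells with no growth and 100% = 10 µM 1-NA-PP1 with full growth; RAM network block rescues cells from 5-FOA so hits raise OD615 growth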
Details: S. cerevisiae dse1pr::URA3 5-FOA growth, OD615, 2 d; at 10 µM; active compounds read high; strain carries analog-sensitive mutant Cbk1 kinase
Listed below: inhibition values for each entry.
Write it as a number; the unit % goes unstated.

Please review the following examples before continuing.
1. Cc1nn(-c2cccc(C(F)(F)F)c2)c(Cl)c1/C=N/n1cnnc1; -0.18
2. COc1ccc(N(CC(=O)Nc2ccc3c(c2)OCCO3)S(=O)(=O)c2c(C)nn(C)c2C)cc1; 0.73
3. COc1ccc2cc3c(N)nn(C(=O)Cc4ccccc4OC)c3nc2c1; 0.65
4. Cc1c(NC(=O)NCCN2C(=O)C3C4C=CC(C4)C3C2=O)c(=O)n(-c2ccccc2)n1C (stereo not given); 1.09
5. Cc1cccc(N2CCN(c3nc4ccccc4n4cnnc34)CC2)c1C; 1.89
6. COc1ccc(NC(=O)C2CCCN2S(=O)(=O)c2ccc(F)cc2)cc1 (stereo not given); 1.87
7. O=C(c1c(Cl)nc2sccn12)N1CCN(c2cccc(Cl)c2)CC1; 0.91
8. O=C1c2ccccc2C(Nc2ccc(Cl)cn2)N1c1ccccn1 (stereo not given); 2.39
9. COc1ccc(CN2CCN(c3cccc(C)c3C)CC2)cc1OC; 1.5
10. CC1CN(S(=O)(=O)c2ccc(Cl)c(S(=O)(=O)N3CC(C)OC(C)C3)c2)CC(C)O1 (stereo not given); 4.11

INPUT: Consider the molecule `CCN(CCNC(=O)Cn1cc2c(n1)CCCC2)c1ccccc1` . State its measured inhibition.
OUTPUT: 2.4

INPUT: Consider the molecule CN(CC(=O)NC1CCCc2ccccc21)S(=O)(=O)c1ccc2c(c1)c(=O)n(C)c(=O)n2C (stereo not given) . State its measured inhibition.
OUTPUT: 2.24

INPUT: Consider the molecule `COc1cc2c(cc1OC)C1=C(C#N)CC/C(=N\S(=O)(=O)c3ccccc3)N1CC2` . State its measured inhibition.
OUTPUT: 1.25

INPUT: Consider the molecule CCCCCSc1nnc2c(n1)OC(C)N(C(C)=O)c1ccccc1-2 (stereo not given) . State its measured inhibition.
OUTPUT: 1.47

INPUT: Consider the molecule COc1cc(C2N(c3ccc(Cl)cc3)C(=O)C3CCCN32)cc(OC)c1OC (stereo not given) . State its measured inhibition.
OUTPUT: 2.28

INPUT: Consider the molecule `Cn1cnnc1SCCC(=O)Nc1ccccc1` . State its measured inhibition.
OUTPUT: 1.14

====

Listed below: RAM network inhibition values for each entry.
Test: RAM signaling pathway blockade in yeast – S. cerevisiae, Pdr1DBD-CYC8 efflux-inhibited sensitized strain, primary screen (AID 1298);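 note: 0% = DMSO untreated cells without growth and 100% = 10 µM 1-NA-PP1 full growth; higher means more yeast growth rescued from 5-FOA killing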
Settings: S. cerevisiae cbk1-as DSE1-URA3 strain, 5-FOA growth OD615, 2 d; at 50 µM; active compounds read high
Write it as a number; the unit % goes unstated.

Please review the following examples before continuing.
1) CC(=O)c1c(C)n(-c2ccc(N(C)C)cc2)c2ccc(OCC(N)=O)cc12; 6.29
2) CCN(CC)S(=O)(=O)c1ccc(C2CNC(=O)C2)cc1 (stereo not drawn); -0.31
3) COCCNS(=O)(=O)c1ccc2c(c1)C(=O)c1cc(S(=O)(=O)NCCOC)ccc1-2; 3.45

INPUT: Consider the compound `COc1ccc(Cn2c(=O)n(Cc3ccco3)c(=N)c3c4c(sc32)COC(C)(C)C4)cc1` . State its measured RAM network inhibition.
OUTPUT: 2.55

INPUT: Consider the compound O=C(CCCOc1ccccc1)Nc1nnc(C2CCCO2)s1 (stereo not drawn) . State its measured RAM network inhibition.
OUTPUT: 8.72

====

Test: viability gain of MRP-1-high H69AR cells under doxorubicin, pilot screen, MRP-1 activator project, CellTiter-Glo, duplicate (AID 807);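 note: compound pretreatment 18-22 h then 72 h combined with doxorubicin; 0% = doxorubicin alone and 100% = vehicle without doxorubicin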
Details: H69AR viability with doxorubicin, CellTiter-Glo luminescence; at 10 µM; active compounds read high
The source made the active and inactive calls.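 Rule for the calls: active = viability increase at or above a cutoff of the median across tested compounds plus 3 SD (cut at about 8.5% in these data, passing the limit was not always enough); inconclusive = some gains above the cutoff, reason not given; inactive = the rest.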
ENDPOINT_NAME: viability increase

Please review the following examples before continuing.
1) OCCN1CCN(c2ncnc3c2sc2nc(N4CCOCC4)c4c(c23)CCC4)CC1; -7.68% (inactive)
2) CC1(C)CC(=O)C2=C(C1)N(c1ccc(F)cc1)C(=O)CC2c1cccnc1 (stereo unspecified); -2.17% (inactive)
3) CC(C)c1ccccc1NC(=O)CCCC(=O)O; -0.29% (inactive)
4) CCC(=O)c1cc(F)c(N2CCN(S(=O)(=O)c3ccccc3)CC2)cc1C; 0.77% (inactive)
5) O=S(=O)(Nc1nnc(-c2ccccc2)s1)c1ccc(Cl)cc1; -0.34% (inactive)
6) CCC1(C)Cc2c(sc3c2c2ncnn2c2nnc(SCC(=O)NCc4ccco4)n32)CO1 (stereo unspecified); -7.33% (inactive)
7) CCn1cc(C(=O)NCCCN2CC(C)CC(C)C2)c2cc(OC)c(OC)cc2c1=O (stereo unspecified); -2.98% (inactive)
8) Cc1cc(Nc2ccc(F)cc2)n2nc(C)nc2n1; -0.76% (inactive)
9) CCOCCCNC(=O)C(c1ccc(Cl)cc1)N1CCC2(CC1)OCCO2 (stereo unspecified); -1.08% (inactive)
10) CCCc1cc(C(=O)Nc2ccc(C)cc2)no1; -0.63% (inactive)

Now for another entry.
INPUT: Consider the compound `O=C(NCCCN1CCOCC1)NC12CC3CC(CC(C3)C1)C2` . State its measured viability increase.
OUTPUT: -0.98% (inactive)

====

Listed below: viability values for each entry.
Assay: HUVEC growth inhibition – cell-based, human, primary screen (AID 575);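 note: 100% = median of untreated cell wells with 0.1% DMSO on each plate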
Details: HUVEC proliferation, CellTiter-Glo luminescence, 72 h; at 10 µM; active compounds read low
Write it as a number; the unit % goes unstated.

INPUT: Consider the molecule `Nc1nnc(-c2ccccc2)c(-c2ccccc2)n1` . State its measured viability.
OUTPUT: 86.4

INPUT: Consider the molecule `Clc1ccc(Cn2ncc3c(NCc4cccnc4)ncnc32)cc1` . State its measured viability.
OUTPUT: 90.5

INPUT: Consider the molecule `O=C(COc1ccccc1)N1CCN(C(=O)c2cccc(F)c2)CC1` . State its measured viability.
OUTPUT: 102

INPUT: Consider the molecule CC(=O)NCCn1c(SCC(=O)NCC2CCCO2)nc2ccccc2c1=O (stereo unspecified) . State its measured viability.
OUTPUT: 109

INPUT: Consider the molecule `COc1ccc(Oc2nc(Oc3ccc(OC)cc3)nc(Oc3ccc(OC)cc3)n2)cc1` . State its measured viability.
OUTPUT: 95.6

// provenance: PubChem BioAssay
